target: rh-α5β1 (Homo sapiens, UniProt P05556+P08648); experiment: Competition binding studies by Biolayer Interferometry (epitope groups); conditions: antibody preincubated with rh-α5β1; A-15B08 immobilized on sensor
Sequence (P08648 42-894 limits assumed): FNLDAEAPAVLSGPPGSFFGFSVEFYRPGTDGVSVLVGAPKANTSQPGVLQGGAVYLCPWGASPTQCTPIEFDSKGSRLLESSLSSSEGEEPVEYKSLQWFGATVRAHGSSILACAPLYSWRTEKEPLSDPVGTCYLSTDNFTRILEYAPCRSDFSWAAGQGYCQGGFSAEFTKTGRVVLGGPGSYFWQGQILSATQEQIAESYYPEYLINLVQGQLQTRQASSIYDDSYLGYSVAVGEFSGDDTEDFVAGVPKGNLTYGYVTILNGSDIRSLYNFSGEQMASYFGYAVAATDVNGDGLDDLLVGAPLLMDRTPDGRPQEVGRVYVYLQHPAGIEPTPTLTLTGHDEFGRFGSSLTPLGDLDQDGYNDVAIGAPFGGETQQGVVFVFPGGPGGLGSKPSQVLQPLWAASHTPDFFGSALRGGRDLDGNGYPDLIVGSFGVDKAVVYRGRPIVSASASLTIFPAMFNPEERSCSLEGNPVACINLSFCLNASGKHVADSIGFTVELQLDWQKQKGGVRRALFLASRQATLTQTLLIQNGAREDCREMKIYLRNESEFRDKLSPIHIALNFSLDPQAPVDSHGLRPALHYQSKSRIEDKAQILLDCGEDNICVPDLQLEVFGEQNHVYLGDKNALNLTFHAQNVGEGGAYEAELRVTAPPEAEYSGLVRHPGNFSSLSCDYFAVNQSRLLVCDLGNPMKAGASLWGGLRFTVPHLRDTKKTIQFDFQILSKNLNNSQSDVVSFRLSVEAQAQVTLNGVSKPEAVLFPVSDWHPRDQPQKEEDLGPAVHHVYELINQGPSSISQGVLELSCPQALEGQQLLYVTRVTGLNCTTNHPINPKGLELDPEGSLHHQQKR
Sequence (P08648 895-995 limits assumed): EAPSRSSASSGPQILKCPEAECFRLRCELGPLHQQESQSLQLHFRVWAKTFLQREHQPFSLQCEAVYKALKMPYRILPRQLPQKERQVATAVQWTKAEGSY
Sequence (P05556 21-728 limits assumed): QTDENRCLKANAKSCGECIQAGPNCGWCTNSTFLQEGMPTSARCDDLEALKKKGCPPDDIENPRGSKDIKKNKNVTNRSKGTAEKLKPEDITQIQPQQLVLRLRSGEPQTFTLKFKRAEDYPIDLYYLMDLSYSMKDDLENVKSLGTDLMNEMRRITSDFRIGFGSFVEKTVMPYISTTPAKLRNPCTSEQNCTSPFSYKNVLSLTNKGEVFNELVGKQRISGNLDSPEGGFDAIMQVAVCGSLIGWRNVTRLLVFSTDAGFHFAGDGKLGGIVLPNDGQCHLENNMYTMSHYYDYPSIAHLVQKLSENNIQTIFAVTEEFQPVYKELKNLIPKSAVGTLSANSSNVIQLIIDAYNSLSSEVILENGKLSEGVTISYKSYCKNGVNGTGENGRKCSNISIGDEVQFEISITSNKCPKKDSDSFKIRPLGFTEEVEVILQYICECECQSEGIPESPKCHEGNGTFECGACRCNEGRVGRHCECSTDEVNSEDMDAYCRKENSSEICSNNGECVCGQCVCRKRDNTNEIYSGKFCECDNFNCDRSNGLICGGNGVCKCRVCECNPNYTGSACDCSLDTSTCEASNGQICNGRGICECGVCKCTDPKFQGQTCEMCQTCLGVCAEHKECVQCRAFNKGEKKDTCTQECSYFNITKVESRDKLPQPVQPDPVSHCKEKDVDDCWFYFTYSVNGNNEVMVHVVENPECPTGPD
observedProperty: binding of rh-α5β1 complexed with antibody to A-15B08 on the sensor

A2-3B06: anti-α5β1 antibody, VH SEQ ID NO:42, VL SEQ ID NO:43 (antibody, V domains shown, A2-3B06 VH Sequence; A2-3B06 VL Sequence) VH: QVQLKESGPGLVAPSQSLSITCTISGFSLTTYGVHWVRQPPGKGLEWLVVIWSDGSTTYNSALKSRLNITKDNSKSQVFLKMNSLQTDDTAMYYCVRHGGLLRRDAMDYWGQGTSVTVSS VL: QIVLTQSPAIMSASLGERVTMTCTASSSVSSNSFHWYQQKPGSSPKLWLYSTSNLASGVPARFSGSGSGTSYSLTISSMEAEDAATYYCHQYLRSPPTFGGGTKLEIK : not able to bind
C-14D12: anti-α5β1 antibody, VH SEQ ID NO:109, VL SEQ ID NO:110; tested as mouse hybridoma antibody and as human IgG4 chimera (antibody, V domains shown, C-14D12 VH Sequence; C-14D12 VL Sequence, tested as mouse hybridoma antibody and as human IgG4 chimera) VH: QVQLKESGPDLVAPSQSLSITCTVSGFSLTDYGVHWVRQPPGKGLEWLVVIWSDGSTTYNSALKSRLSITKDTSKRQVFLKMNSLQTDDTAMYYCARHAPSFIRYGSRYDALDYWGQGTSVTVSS VL: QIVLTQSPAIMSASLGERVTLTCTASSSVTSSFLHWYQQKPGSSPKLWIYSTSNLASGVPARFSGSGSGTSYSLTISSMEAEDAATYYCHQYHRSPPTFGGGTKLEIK : not able to bind
